Parameter: pIC50. Scope: all listed entries.
assay system: human MRGPR X4 (Homo sapiens)
Construct: expressed in transfected cells
Sequence (Q96LA9 whole entry): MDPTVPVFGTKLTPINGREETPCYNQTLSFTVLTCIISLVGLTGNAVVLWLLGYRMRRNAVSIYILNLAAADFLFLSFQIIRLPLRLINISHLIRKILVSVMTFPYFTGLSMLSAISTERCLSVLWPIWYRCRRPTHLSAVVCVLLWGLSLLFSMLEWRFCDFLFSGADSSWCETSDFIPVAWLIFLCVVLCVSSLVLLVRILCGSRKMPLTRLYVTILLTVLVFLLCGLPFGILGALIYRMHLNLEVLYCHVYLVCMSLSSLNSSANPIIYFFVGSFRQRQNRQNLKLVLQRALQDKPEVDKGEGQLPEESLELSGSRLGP
method description: MRGPR X4 antagonist activity, IP-One Gq HTRF assay in stably transfected HEK cells
Assay type: cell-based
pIC50: −log10 of the molar value.
measured quantity: pIC50

>>> endpoint_value("COc1ccc(Cn2nc(C(=O)NCCc3nnc4ccccn34)c3ccccc32)nc1")
"< 5.60"
>>> endpoint_value("O=C(NCc1nc2ccccc2o1)c1nn(Cc2ccc(Cl)cc2)c2ccccc12")
"< 5.60"
>>> endpoint_value("Cc1ccc(Cn2cc(C(=O)NCCc3cccnc3)c3ccccc32)cc1")
"6.30 to 7.00"
>>> endpoint_value("O=C(NCCc1nnc2ccccn12)c1nn(Cc2cccc3ccsc23)c2ccccc12")
"6.00 to 6.30"
>>> endpoint_value("O=C(NCCc1nnc2ccccn12)c1nn(Cc2ncco2)c2ccccc12")
"< 5.60"
>>> endpoint_value("O=C(NCCc1cccnc1)c1nn(Cc2ccc(Cl)c(F)c2)c2ccccc12")
"> 7.00"
>>> endpoint_value("O=C(NCCc1cccnc1C(F)(F)F)c1cn(Cc2ccc(Cl)cc2)c2ccccc12")
"6.00 to 6.30"

---

Here the recorded pIC50 is given for each entry.
assay system: human MRGPR X4 (Homo sapiens)
Construct: expressed in transfected cells
method description: MRGPR X4 antagonist activity, IP-One Gq HTRF assay in stably transfected HEK cells
Format: cell-based
pIC50: −log10 of the molar value.
measured quantity: pIC50

>>> endpoint_value("O=C(NCCc1nc2c(s1)CCCC2)c1nn(Cc2ccc(Cl)c(F)c2)c2ccccc12")
"6.30 to 7.00"
>>> endpoint_value("O=C(NCCc1nnc2ccccn12)c1nn(Cc2ccc(Cl)cc2)c2c(Br)cccc12")
"> 7.00"
>>> endpoint_value("Cc1ccc(Cn2nc(C(=O)NCCc3ccn(C)n3)c3ccccc32)cc1")
"6.00 to 6.30"
>>> endpoint_value("CN1CCN(CCCn2nc(C(=O)NCCc3nnc4ccccn34)c3ccccc32)CC1")
"< 5.60"
>>> endpoint_value("CC(C)c1cn(CCNC(=O)c2nn(Cc3ccc(Cl)cc3)c3ccccc23)nn1")
"> 7.00"
>>> endpoint_value("Cc1ccc2nc(CCNC(=O)c3nn(Cc4ccc(Cl)cc4)c4ccccc34)[nH]c2c1")
"6.30 to 7.00"

Sourced from patent US20240254089A1
